Target: KRAS G12C and cRAF interaction (Homo sapiens, UniProt P01116, C118S/C51S/C80L/G12C)
Construct: truncated version comprising amino acids 1-169
Sequence (P01116 1-169 isoform P01116-2 G12C/C51S/C80L/C118S): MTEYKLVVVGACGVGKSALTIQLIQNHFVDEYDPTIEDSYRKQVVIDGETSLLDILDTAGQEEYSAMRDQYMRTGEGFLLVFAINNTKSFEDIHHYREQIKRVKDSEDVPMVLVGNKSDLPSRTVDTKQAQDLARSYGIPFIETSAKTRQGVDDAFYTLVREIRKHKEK
Experiment: Inhibition of KRAS G12C and cRAF binding (AlphaScreen)
Type: biochemical
Details: KRAS G12C (Cys-light, aa 1-169) preloaded with GMPPNP, cRaf RBD (aa 50-131), 2 hours incubation
Documented IC50 across a set of molecules
measure name: IC50

[[record]]
molecule = "C#Cc1c(F)ccc2cccc(-c3ncc4c(N5CCN(C(=O)C=C)C6(COC6)C5)nc(OC[C@@]56CCCN5C[C@H](F)C6)nc4c3F)c12"
value = "< 10 nM"

[[record]]
molecule = "C=CC(=O)N1CCN(c2nc(OC[C@@]34CCCN3C[C@H](F)C4)nc3c(F)c(-c4cc(O)cc(Cl)c4C4CC4)c(Cl)cc23)CC12COC2"
value = "< 10 nM"

[[record]]
molecule = "CCc1c(F)ccc2cccc(-c3ncc4c(N5CCN(C(=O)/C(F)=C/c6ccnc(C)n6)C6(COC6)C5)nc(OC[C@@]56CCCN5C[C@H](F)C6)nc4c3F)c12"
value = "< 10 nM"

[[record]]
molecule = "CN1CC[C@@H]1/C=C/C(=O)N1CCN(c2nc(OC[C@@]34CCCN3C[C@H](F)C4)nc3c(F)c(-c4cc(O)cc(Cl)c4C4CC4)ncc23)CC12COC2"
value = "< 10 nM"

[[record]]
molecule = "C#Cc1c(F)ccc2cccc(-c3ncc4c(N5CCN(C(=O)/C(F)=C/c6ccnc(C)n6)C6(COC6)C5)nc(OC[C@@]56CCCN5C[C@H](F)C6)nc4c3F)c12"
value = "< 10 nM"

[[record]]
molecule = "C=CC(=O)N1CCN(c2nc(OC[C@@H]3CCCN3C)nc3c(F)c(-c4cccc5cccc(Cl)c45)ncc23)CC12CCOC2 (some centres unmarked)"
value = "≥ 500 nM"

[[record]]
molecule = "C#Cc1c(F)ccc2cccc(-c3ncc4c(N5CCN(C(=O)/C=C/CN6C[C@@H]7C[C@H]6CO7)C6(COC6)C5)nc(OC[C@@]56CCCN5C[C@H](F)C6)nc4c3F)c12"
value = "< 10 nM"

[[record]]
molecule = "O=C(/C=C/CN1[C@@H]2CC[C@H]1COC2)N1CCN(c2nc(OC[C@@]34CCCN3C[C@H](F)C4)nc3c(F)c(-c4cccc5ccc(F)c(Cl)c45)ncc23)CC12COC2"
value = "< 10 nM"

[[record]]
molecule = "O=C(C#CCN1CCOCC1)N1CCN(c2nc(OC[C@@]34CCCN3C[C@H](F)C4)nc3c(F)c(-c4cccc5cccc(Cl)c45)ncc23)CC12COC2"
value = "100 to 500 nM"

[[record]]
molecule = "O=C(/C=C/CN1[C@@H]2CC[C@H]1COC2)N1CCN(c2nc(OC[C@@]34CCCN3C[C@H](F)C4)nc3c(F)c(-c4cccc5ccc(F)c(F)c45)ncc23)CC12COC2"
value = "< 10 nM"

[[record]]
molecule = "CN(C)C/C=C/C(=O)N1CCN(c2nc(OC[C@@]34CCCN3C[C@H](F)C4)nc3c(F)c(-c4cccc(Cl)c4C(F)(F)F)ncc23)CC12COC2"
value = "100 to 500 nM"


---

Documented IC50 across a set of compounds
Molecular target: KRAS G12C and cRAF interaction (Homo sapiens, UniProt P01116, C118S/C51S/C80L/G12C)
Construct: truncated version comprising amino acids 1-169
Assay: Inhibition of KRAS G12C and cRAF binding (AlphaScreen)
Details: KRAS G12C (Cys-light, aa 1-169) preloaded with GMPPNP, cRaf RBD (aa 50-131), 2 hours incubation
measure name: IC50

[[record]]
compound = "O=C(/C=C/CN1CC2CC(C1)O2)N1CCN(c2nc(OC[C@@]34CCCN3C[C@H](F)C4)nc3c(F)c(-c4cccc5cccc(Cl)c45)ncc23)CC12COC2"
subject_of_test = "KRAS G12C and cRAF interaction (Homo sapiens, UniProt P01116, C118S/C51S/C80L/G12C)"
value = "10 to 100 nM"

[[record]]
compound = "C=CC(=O)N1CC(C)N(c2nc(OC[C@@]34CCCN3C[C@H](F)C4)nc3c(F)c(-c4cccc5cccc(Cl)c45)ncc23)CC12COC2 (some centres unmarked)"
subject_of_test = "KRAS G12C and cRAF interaction (Homo sapiens, UniProt P01116, C118S/C51S/C80L/G12C)"
value = "10 to 100 nM"

[[record]]
compound = "C=CC(=O)N1CCN(c2nc(OC[C@@]34CCCN3C[C@H](F)C4)nc3c(F)c(-c4cccc5ccc(F)c(CC)c45)ncc23)CC12COC2"
subject_of_test = "KRAS G12C and cRAF interaction (Homo sapiens, UniProt P01116, C118S/C51S/C80L/G12C)"
value = "< 10 nM"

[[record]]
compound = "C#Cc1c(F)ccc2cccc(-c3ncc4c(N5CCN(C(=O)/C=C/CN6CC[C@@H](F)C6)C6(COC6)C5)nc(OC[C@@]56CCCN5C[C@H](F)C6)nc4c3F)c12"
subject_of_test = "KRAS G12C and cRAF interaction (Homo sapiens, UniProt P01116, C118S/C51S/C80L/G12C)"
value = "< 10 nM"

[[record]]
compound = "C=CC(=O)N1[C@H](C)CN(c2nc(OC[C@@]34CCCN3C[C@H](F)C4)nc3c(F)c(-c4cccc5ccc(F)c(F)c45)ncc23)CC12COC2"
subject_of_test = "KRAS G12C and cRAF interaction (Homo sapiens, UniProt P01116, C118S/C51S/C80L/G12C)"
value = "< 10 nM"

[[record]]
compound = "O=C(/C=C/CN1[C@@H]2CC[C@H]1COC2)N1CCN(c2nc(OC[C@@]34CCCN3C[C@H](F)C4)nc3c(F)c(-c4cccc(Cl)c4C(F)(F)F)ncc23)CC12COC2"
subject_of_test = "KRAS G12C and cRAF interaction (Homo sapiens, UniProt P01116, C118S/C51S/C80L/G12C)"
value = "< 10 nM"

[[record]]
compound = "C=CC(=O)N1CCN(c2nc(OC[C@@]34CCCN3C[C@H](F)C4)nc3c(F)c(-c4cccc5cccc(Cl)c45)ncc23)C[C@]12CCOC2"
subject_of_test = "KRAS G12C and cRAF interaction (Homo sapiens, UniProt P01116, C118S/C51S/C80L/G12C)"
value = "≥ 500 nM"

[[record]]
compound = "C=CC(=O)N1CCN(c2nc(OC[C@@]34CCCN3C[C@H](F)C4)nc3c(F)c(-c4cccc5ccc(F)c(F)c45)ncc23)C[C@@]12CCOC2"
subject_of_test = "KRAS G12C and cRAF interaction (Homo sapiens, UniProt P01116, C118S/C51S/C80L/G12C)"
value = "10 to 100 nM"

[[record]]
compound = "C=CC(=O)N1[C@@H](C)CN(c2nc(OC[C@@]34CCCN3C[C@H](F)C4)nc3c(F)c(-c4cccc5cccc(Cl)c45)ncc23)CC12COC2"
subject_of_test = "KRAS G12C and cRAF interaction (Homo sapiens, UniProt P01116, C118S/C51S/C80L/G12C)"
value = "≥ 500 nM"

[[record]]
compound = "C=CC(=O)N1CCN(c2nc(OC[C@@]34CCCN3C[C@H](F)C4)nc3c(F)c(-c4n[nH]c5cccc(Cl)c45)ncc23)CC12COC2"
subject_of_test = "KRAS G12C and cRAF interaction (Homo sapiens, UniProt P01116, C118S/C51S/C80L/G12C)"
value = "≥ 500 nM"

[[record]]
compound = "C#Cc1c(F)ccc2cccc(-c3ncc4c(N5CCN(C(=O)/C=C/CN6[C@@H]7CC[C@H]6COC7)C6(COC6)C5)nc(OC[C@@]56CCCN5C[C@H](F)C6)nc4c3F)c12"
subject_of_test = "KRAS G12C and cRAF interaction (Homo sapiens, UniProt P01116, C118S/C51S/C80L/G12C)"
value = "< 10 nM"


---

Target: KRAS G12C and cRAF interaction (Homo sapiens, UniProt P01116, C118S/C51S/C80L/G12C)
Construct: truncated version comprising amino acids 1-169
Assay: Inhibition of KRAS G12C and cRAF binding (AlphaScreen)
Conditions: KRAS G12C (Cys-light, aa 1-169) preloaded with GMPPNP, cRaf RBD (aa 50-131), 2 hours incubation
measure name: IC50

[[record]]
molecule = "C#Cc1c(F)ccc2cccc(-c3ncc4c(N5CCN(C(=O)/C(F)=C/c6cc(C)nc(C)n6)C6(COC6)C5)nc(OC[C@@]56CCCN5C[C@H](F)C6)nc4c3F)c12"
value = "< 10 nM"

[[record]]
molecule = "CC(C#CC(=O)N1CCN(c2nc(OC[C@@]34CCCN3C[C@H](F)C4)nc3c(F)c(-c4cccc5cccc(Cl)c45)ncc23)CC12COC2)N1CCOCC1 (stereo partly shown)"
value = "100 to 500 nM"

[[record]]
molecule = "Cc1nccc(/C=C/C(=O)N2CCN(c3nc(OC[C@@]45CCCN4C[C@H](F)C5)nc4c(F)c(-c5cccc6ccc(F)c(F)c56)ncc34)CC23COC3)n1"
value = "10 to 100 nM"

[[record]]
molecule = "C=CC(=O)N1C(C)CN(c2nc(OC[C@@]34CCCN3C[C@H](F)C4)nc3c(F)c(-c4cccc5cccc(Cl)c45)ncc23)CC12COC2 (stereo partly shown)"
value = "10 to 100 nM"

[[record]]
molecule = "C#Cc1c(F)ccc2cccc(-c3ncc4c(N5CCN(C(=O)/C=C/CN6C[C@H]7C[C@@H]6CO7)C6(COC6)C5)nc(OC[C@@]56CCCN5C[C@H](F)C6)nc4c3F)c12"
value = "< 10 nM"

[[record]]
molecule = "C=CC(=O)N1CCN(c2nc(OC[C@@]34CCCN3C[C@H](F)C4)nc3c(F)c(-c4ccc(F)c5sc(N)nc45)c(C(F)(F)F)cc23)C[C@]12CCOC2"
value = "10 to 100 nM"

[[record]]
molecule = "O=C(/C=C/CN1C[C@H]2C[C@@H]1CO2)N1CCN(c2nc(OC[C@@]34CCCN3C[C@H](F)C4)nc3c(F)c(-c4cccc(Cl)c4C(F)(F)F)ncc23)CC12COC2"
value = "< 10 nM"

[[record]]
molecule = "O=C(C#CCN1CC2CCC(C1)O2)N1CCN(c2nc(OC[C@@]34CCCN3C[C@H](F)C4)nc3c(F)c(-c4cccc5cccc(Cl)c45)ncc23)CC12COC2"
value = "100 to 500 nM"

[[record]]
molecule = "C=CC(=O)N1CCN(c2nc(OC[C@@]34CCCN3C[C@H](F)C4)nc3c(F)c(-c4ccc(F)c5sc(N)nc45)c(Cl)cc23)CC12CCOC2 (stereo partly shown)"
value = "100 to 500 nM"

[[record]]
molecule = "C=C(F)C(=O)N1CCN(c2nc(OC[C@@]34CCCN3C[C@H](F)C4)nc3c(F)c(-c4cc(O)cc(Cl)c4C4CC4)ncc23)CC12COC2"
value = "≥ 500 nM"

[[record]]
molecule = "Cc1nccc(/C=C/C(=O)N2CCN(c3nc(OC[C@@]45CCCN4C[C@H](F)C5)nc4c(F)c(-c5cccc6cccc(Cl)c56)ncc34)CC23COC3)n1"
value = "100 to 500 nM"

[[record]]
molecule = "Cc1nccc(/C=C/C(=O)N2CCN(c3nc(OCC45CCCN4CCC5)nc4c(F)c(-c5cccc6cccc(Cl)c56)ncc34)CC23COC3)n1"
value = "100 to 500 nM"

[[record]]
molecule = "Cc1cc(/C=C/C(=O)N2CCN(c3nc(OC[C@@]45CCCN4C[C@H](F)C5)nc4c(F)c(-c5cccc6ccc(F)c(F)c56)ncc34)CC23COC3)nc(C)n1"
value = "10 to 100 nM"

[[record]]
molecule = "O=C(/C=C/CN1CCOCC1)N1CCN(c2nc(OC[C@@]34CCCN3C[C@H](F)C4)nc3c(F)c(-c4cccc5ccc(F)c(F)c45)ncc23)CC12COC2"
value = "10 to 100 nM"

[[record]]
molecule = "C=CC(=O)N1CCN(c2nc(OC[C@@]34CCCN3C[C@H](F)C4)nc3c(F)c(-c4ccc(F)c5sc(N)nc45)c(C(F)(F)F)cc23)C[C@@]12CCOC2"
value = "≥ 500 nM"

[[record]]
molecule = "O=C(/C=C/CN1CCOCC1)N1CCN(c2nc(OC[C@@]34CCCN3C[C@H](F)C4)nc3c(F)c(-c4cccc5cccc(Cl)c45)ncc23)CC12COC2"
value = "≥ 500 nM"

[[record]]
molecule = "CN(C)C/C=C/C(=O)N1CCN(c2nc(OC[C@@]34CCCN3C[C@H](F)C4)nc3c(F)c(-c4cc(O)cc(Cl)c4C4CC4)ncc23)CC12COC2"
value = "< 10 nM"

[[record]]
molecule = "O=C(/C=C/CN1[C@@H]2CC[C@H]1COC2)N1CCN(c2nc(OC[C@@]34CCCN3C[C@H](F)C4)nc3c(F)c(-c4cc(O)cc(Cl)c4C4CC4)ncc23)CC12COC2"
value = "< 10 nM"

[[record]]
molecule = "C=CC(=O)N1CCN(c2nc(OC[C@@]34CCCN3C[C@H](F)C4)nc3c(F)c(-c4cccc5ccc(F)c(F)c45)ncc23)CC12CCOC2 (stereo partly shown)"
value = "10 to 100 nM"

[[record]]
molecule = "Cc1nccc(/C=C(\\F)C(=O)N2CCN(c3nc(OC[C@@]45CCCN4C[C@H](F)C5)nc4c(F)c(-c5cccc6cccc(Cl)c56)ncc34)CC23COC3)n1"
value = "≥ 500 nM"

[[record]]
molecule = "C=CC(=O)N1CCN(c2nc(OC[C@@]34CCCN3C[C@H](F)C4)nc3c(F)c(-c4cccc5ccc(F)c(F)c45)ncc23)CC12COC2"
value = "< 10 nM"

[[record]]
molecule = "C=CC(=O)N1CCN(c2nc(OC[C@@]34CCCN3C[C@H](F)C4)nc3c(F)c(-c4cccc5cccc(Cl)c45)ncc23)C[C@@]12CCOC2"
value = "100 to 500 nM"

